Value source: ChEMBL document CHEMBL4513216

# measurement-protocol: Toxicity liver stage against HepG2, at 10uM
# Assay type: cell-based
# Set-up: test concentration 10 uM, cell line HepG2-A16-CD81EGFP
# cond: human, HepG2-A16-CD81EGFP cells; read-out: INHIBITION
Listed below: cytotoxicity at 10 µM values for each entry.
The response must be a number in % with no trailing unit.

For orientation, consider the following solved cases.
Cc1nc(CN(C)Cc2csc(-c3cccs3)n2)co1
-6.06
c1ccc(O[C@@H]2CC[C@H]3[C@H]2OCCN3CC2CCOCC2)nc1
-1.02

Could you share which cytotoxicity at 10 µM value was measured for `O=C(Nc1cc(-c2ccccc2)on1)N1CC[C@H](O)C1` ?
4.98

// lookup cytotoxicity at 10 µM for CCC1CN(C(=O)c2csc(-c3cnn(C)c3)n2)CCO1 (configuration not stated)
-23.2

----------
Listing: cytotoxicity at 10 µM of selected compounds
# measurement-protocol: Toxicity liver stage against HepG2, at 10uM
# Type: cell-based
# Set-up: test concentration 10 uM, cell line HepG2-A16-CD81EGFP
# cond: human, HepG2-A16-CD81EGFP cells; read-out: INHIBITION
Unit % implied. Number only.

COCCN1CCC(C(=O)N(C)Cc2cccc(Cl)c2)C1 (configuration not stated)
-28.6

Please report the recorded cytotoxicity at 10 µM for `COc1ccc(Nc2nc3c(C)nn(C)c3c(=O)n2C)c(OC)c1` .
-6.89

Give the measured cytotoxicity at 10 µM of CC(O)CN1CCN(Cc2coc(-c3ccccc3)n2)CC1 (configuration not stated) .
-5.93

----------
Let's look at some compounds and their measured cytotoxicity at 10 µM.
# measurement-protocol: Toxicity liver stage against HepG2, at 10uM
# Assay type: cell-based
# Design: test concentration 10 uM, cell line HepG2-A16-CD81EGFP
# cond: human, HepG2-A16-CD81EGFP cells; read-out: INHIBITION
Your answer should be a plain number; it is taken to be in %.

Give the measured cytotoxicity at 10 µM of `Cc1oncc1C(=O)N[C@@H]1CN(CC2CC2)C[C@@H]2CCCO[C@@H]21` .
-103

----------
# measurement-protocol: Toxicity liver stage against HepG2, at 10uM
# Format: cell-based
# Set-up: test concentration 10 uM, cell line HepG2-A16-CD81EGFP
# cond: human, HepG2-A16-CD81EGFP cells; read-out: INHIBITION
property-measured: cytotoxicity at 10 µM (%)
Numbers only; they are read as %.

Solved cases (3 shown):
CC(NC(=O)N1CCNC(=O)CC1)c1c(F)cccc1Cl (centres undefined)
-1.66
COCc1ccccc1C(=O)N(C)Cc1ncc(C)c(OC)c1C
-7.55
O=C(c1cn(Cc2ccccc2)c2ncccc12)N1CCOCC1
-0.142

Give the measured cytotoxicity at 10 µM of O=C(NC1CCC(N2C(=O)CCC2=O)CC1)c1c[nH]c2ccccc12 (centres undefined) .
-2.06

----------
# measurement-protocol: Toxicity liver stage against HepG2, at 10uM
# Type: cell-based
# Set-up: test concentration 10 uM, cell line HepG2-A16-CD81EGFP
# cond: human, HepG2-A16-CD81EGFP cells; read-out: INHIBITION
Each entry below carries its reported cytotoxicity at 10 µM.
Write down the numeric answer in % and omit the unit.

Please review the following examples before continuing.
Oc1cccc(CNC2CCN(CCc3ccncc3)CC2)c1
-1.56
OC(COCc1ccccc1F)CN1CCC(Cn2cccn2)CC1 (stereo not given)
-10.2
CC(C)(C)CC(=O)N1CCC(n2cc(C3(O)CCCC3)nn2)CC1
8.64
COc1c(C(=O)NCC(C)C)nnn1Cc1ccccc1
12
O=C(c1ccc2c(c1)CCC2)N1CCC(c2n[nH]c(C3CC3)n2)CC1
-8.06

Now, please, on to the next molecule.
Reported cytotoxicity at 10 µM, molecule Cc1nc(C2CCCN(C(=O)COCCc3ccccc3)C2)no1 (stereo not given) : ____
-11.1

----------
Reported cytotoxicity at 10 µM values follow for various compounds
# measurement-protocol: Toxicity liver stage against HepG2, at 10uM
# Format: cell-based
# Design: test concentration 10 uM, cell line HepG2-A16-CD81EGFP
# cond: human, HepG2-A16-CD81EGFP cells; read-out: INHIBITION

Solved entries (count: 6):
CC(=O)NC[C@@H]1C=C(C)[C@H](CC(=O)NCc2cccnc2)C[C@H]1C(C)C
4.33%
CNc1nc(C(=O)N2CCC3(CCCN(C)C3=O)C2)cs1 (stereo not drawn)
-8.57%
Cc1noc(C)c1CC(=O)N[C@@H]1CC[C@@H](Oc2ccccc2)[C@@H]1O
2.04%
c1cc(CN2C[C@@H]3OCCN(CCN4CCCC4)[C@@H]3C2)cs1
-1.46%
Cc1ccc(C(=O)Nc2cccc3c2C(=O)NC3)c(C)n1
0.102%
CC(C)NC(=O)N1CCC2(C1)CN(c1ccsc1)C(=O)CN2C (stereo not drawn)
1.18%

For the compound shown here, Cc1ccc(CC2CCCN(S(C)(=O)=O)C2)nc1 (stereo not drawn) , give the reported cytotoxicity at 10 µM.
-8.58%

Returns the measured cytotoxicity at 10 µM for the input compound. Input: `Cn1ccnc1NC[C@@H]1CCC[C@@H]2CN(CC3CC3)C[C@@H]21`
16%

Suppose we examine the compound `O=C(CCc1nnc2ccccn2c1=O)NCc1ccc2c(c1)OCO2` ; what cytotoxicity at 10 µM value has been reported?
-0.403%

Can you look up the measured cytotoxicity at 10 µM of COCCN1CCC2(CC1)CC(NC(=O)CC1CC1)c1ccccc1O2 (stereo not drawn) for me?
-1.83%

What value of cytotoxicity at 10 µM has been recorded for this entry: `COc1ccc(C(=O)CN(C2=NCCCCC2)c2ccccc2)cc1`
9.62%

Any idea what its cytotoxicity at 10 µM is? The compound is `CCN1CCN(C2CCN(Cc3nnc(C(C)(C)C)o3)CC2)C1=O`
3.8%

----------
Reported cytotoxicity at 10 µM by item:
# measurement-protocol: Toxicity liver stage against HepG2, at 10uM
# Assay type: cell-based
# Design: test concentration 10 uM, cell line HepG2-A16-CD81EGFP
# cond: human, HepG2-A16-CD81EGFP cells; read-out: INHIBITION
# value in %; strip the unit string

CCCOc1cc(C)ccc1NC(=O)NCCC(=O)N(C)C
-13.9
COCC(=O)N1CCCC2(COCCN(CCN(C)C)C2)C1 (centres undefined)
8.76
O=C(c1cccc(F)c1)N1CC[C@H]2[C@H]1CCN2CC1CCOCC1
-75.4

Query: cytotoxicity at 10 µM; subject: Cc1[nH]nc(CCC(=O)N2CCOC(CCc3ccccc3)C2)c1C (centres undefined)
-10.8

Dear colleague, I am looking for the recorded cytotoxicity at 10 µM of the following molecule: `CCS(=O)(=O)CCN(C)Cc1cc(C)ccc1OC`
-51.5

Sample `O=C(c1ccnnc1)N1CCO[C@H]2[C@H](Oc3cccnc3)CC[C@@H]21` — what was its cytotoxicity at 10 µM?
8.39

So what does the record say about cytotoxicity at 10 µM for `O=c1cc(CN2CCC(CCc3ccc(O)cc3)CC2)[nH]c(=O)[nH]1` ?
-0.885

Given `CN1CCN(CC2CC2)C(=O)C12CCN(C(=O)c1cnccn1)CC2` , state its recorded cytotoxicity at 10 µM.
7.95

What cytotoxicity at 10 µM value was documented for this molecule, `N#Cc1cccnc1Nc1ccc(N2CCC(C(N)=O)CC2)cc1` ?
-40.1

----------
# measurement-protocol: Toxicity liver stage against HepG2, at 10uM
# Type: cell-based
# Design: test concentration 10 uM, cell line HepG2-A16-CD81EGFP
# cond: human, HepG2-A16-CD81EGFP cells; read-out: INHIBITION
A collection of compounds and their measured cytotoxicity at 10 µM
Remember to quote the unit after the number.

// below: answered compounds
O=C1O[C@@H]2CN(Cc3ccccn3)C[C@@H]2N1CCCc1ccc(F)cc1
-0.687%
Cc1cc(CN(Cc2ccccc2)C(C)CN2CCOCC2)no1 (stereo not given)
4.69%
CN(C)C(C(=O)N1CCN(CCn2cccc2)CC1)c1ccc(F)cc1 (stereo not given)
-14.9%
COc1ccccc1-c1csc(NC(=O)N2CCN(C)CC2C)n1 (stereo not given)
-3.24%
O=C(Nc1ccccc1)C1CN(CC2CC2)CC12CCOCC2 (stereo not given)
-6.36%

Request the reported cytotoxicity at 10 µM associated with `O=C(NCc1ccco1)Nc1cccc(S(=O)(=O)C(F)F)c1`
-54.8%

Recorded cytotoxicity at 10 µM for `O=C(NCCc1ccncc1)c1cccnc1OCC(F)(F)F` , please?
5.03%

Can you share its cytotoxicity at 10 µM? I mean this compound: `CCCc1ccc(CN2CCC3(CCC(=O)N(C)CC3)CC2)o1`
-4.35%

Given the compound Cc1cc(NC(=O)CCN2CCCCC2Cn2cccn2)no1 (stereo not given) , what is its reported cytotoxicity at 10 µM?
2.14%
